Data provenance is patent US5239082A.

# Target System: acyl-CoA: cholesterol acyltransferase (ACAT) (Oryctolagus cuniculus)
# Sequence (G1SFD9 1-524): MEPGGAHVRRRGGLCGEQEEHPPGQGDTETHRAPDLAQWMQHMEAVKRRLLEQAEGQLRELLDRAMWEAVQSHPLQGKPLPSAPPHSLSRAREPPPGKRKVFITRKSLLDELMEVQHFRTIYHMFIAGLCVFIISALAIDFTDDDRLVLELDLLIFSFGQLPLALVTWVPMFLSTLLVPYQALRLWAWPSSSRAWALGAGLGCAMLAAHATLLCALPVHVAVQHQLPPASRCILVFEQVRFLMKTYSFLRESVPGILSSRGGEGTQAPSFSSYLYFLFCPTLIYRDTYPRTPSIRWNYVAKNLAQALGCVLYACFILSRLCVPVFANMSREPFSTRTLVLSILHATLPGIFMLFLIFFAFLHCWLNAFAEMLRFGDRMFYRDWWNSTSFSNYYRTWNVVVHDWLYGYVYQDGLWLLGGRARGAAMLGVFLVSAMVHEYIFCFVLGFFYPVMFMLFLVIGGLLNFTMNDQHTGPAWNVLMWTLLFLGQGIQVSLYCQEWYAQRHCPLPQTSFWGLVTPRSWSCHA
pIC50: −log10 of the molar value.
Recorded Metric: pIC50

• CCCCCCCCCCCCn1nnnc1CS(=O)(=O)Nc1c(OC)cc(OC)cc1OC [Example 8] = 5.43
• CCCCCCCCCCCCCCCCCCn1nnc(CS(=O)(=O)Nc2c(C(C)C)cccc2C(C)C)n1 [Example 5] = 5.12
• CCCCCCCCCCCCn1nnc(C(C)(C)S(=O)(=O)Nc2c(C(C)C)cccc2C(C)C)n1 [Example 9] = 7.40
• CCCCCCCCCCCCn1nnc(CS(=O)(=O)Nc2c(C(C)C)cccc2C(C)C)n1 [Example 1] = 6.65
• CCCCCCCCCCCCCCCCn1nnc(CS(=O)(=O)Nc2c(C(C)C)cccc2C(C)C)n1 [Example 2] = 6.22
